- EXPERIMENT NOTES: Cytotoxicity against mouse RAW264.7 cells assessed as cell viability at 6.25 ug/ml measured after 24 hrs in presence of LPS by MTT assay (reference value: 96.3 +/- 1%)
- Format: toxicity
- STUDY CONDITIONS: read-out: Activity
MEASURED ATTRIBUTE: viability at 24 h, 6.25 ug/ml (%)

> print(dat)
                                   compound             measured.attribute  output.unit  value.observed
1  CC(C)=CC1Oc2cc(O)ccc2-c2oc3c4c(cc(O)c3c(=O)c21)OC(C)(C)C=C4 (configuration not stated)  viability at 24 h, 6.25 ug/ml            %            86.2
2              O=[N+]([O-])/C=C\c1ccc(O)cc1  viability at 24 h, 6.25 ug/ml            %            82.2
3  CC1(C)C=Cc2c(cc(O)c3c(=O)c4c(oc23)-c2ccc(O)cc2OC(C(C)(C)O)C4)O1 (configuration not stated)  viability at 24 h, 6.25 ug/ml            %            82.4
4  CC(C)=CCc1c(-c2ccc(O)cc2O)oc2c3c(cc(O)c2c1=O)OC(C)(C)C=C3  viability at 24 h, 6.25 ug/ml            %            83.3
5  CC(=O)Oc1ccc(-c2oc3c4c(cc(O)c3c(=O)c2CC=C(C)C)OC(C)(C)C=C4)c(OC(C)=O)c1  viability at 24 h, 6.25 ug/ml            %            80.3
6  CC(C)=CCC/C(C)=C/Cc1c(-c2ccc(O)cc2O)oc2c(CC=C(C)C)c(O)cc(O)c2c1=O  viability at 24 h, 6.25 ug/ml            %            99.7
